Molecular target: Neu5Ac(a2-3)Gal(b1-4)GlcNAc(b1-3)Gal(b1-4)GlcNAc(b1-3)Gal(b1-4)GlcNAc(b1-2)Man(a1-3)[Neu5Ac(a2-3)Gal(b1-4)GlcNAc(b1-3)Gal(b1-4)GlcNAc(b1-3)Gal(b1-4)GlcNAc(b1-2)Man(a1-6)]GalNAc
Experiment: glycan array binding signal (z-score within array); higher = stronger binding
Conditions: glycan notation: IUPAC condensed, linker removed
The full list was thinned out, with the strongest signals kept by preference.
READOUT_KIND: glycan array binding signal (z-score)

{"BINDER": "CPA (Cicer arietinum) (protein) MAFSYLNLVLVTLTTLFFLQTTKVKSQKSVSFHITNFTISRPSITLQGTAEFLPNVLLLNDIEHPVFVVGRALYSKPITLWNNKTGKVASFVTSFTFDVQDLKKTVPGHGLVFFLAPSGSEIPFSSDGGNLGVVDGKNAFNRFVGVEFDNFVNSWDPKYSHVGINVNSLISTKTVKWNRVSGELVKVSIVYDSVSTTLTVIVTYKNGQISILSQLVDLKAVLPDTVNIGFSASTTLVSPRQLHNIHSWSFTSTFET", "READOUT_KIND": "glycan array binding signal (z-score)", "TEST_RESULT": 6.81}
{"BINDER": "ECA (Erythrina cristagalli), P83410 (protein) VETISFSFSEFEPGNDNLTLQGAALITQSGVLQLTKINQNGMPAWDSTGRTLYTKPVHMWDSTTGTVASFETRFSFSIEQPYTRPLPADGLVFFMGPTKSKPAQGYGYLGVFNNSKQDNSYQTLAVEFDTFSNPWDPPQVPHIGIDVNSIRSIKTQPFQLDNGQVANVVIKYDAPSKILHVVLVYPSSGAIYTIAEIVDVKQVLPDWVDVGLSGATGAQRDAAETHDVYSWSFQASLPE", "READOUT_KIND": "glycan array binding signal (z-score)", "TEST_RESULT": 7.35}
{"BINDER": "RsaA-N-term (Caulobacter crescentus), P35828 (protein) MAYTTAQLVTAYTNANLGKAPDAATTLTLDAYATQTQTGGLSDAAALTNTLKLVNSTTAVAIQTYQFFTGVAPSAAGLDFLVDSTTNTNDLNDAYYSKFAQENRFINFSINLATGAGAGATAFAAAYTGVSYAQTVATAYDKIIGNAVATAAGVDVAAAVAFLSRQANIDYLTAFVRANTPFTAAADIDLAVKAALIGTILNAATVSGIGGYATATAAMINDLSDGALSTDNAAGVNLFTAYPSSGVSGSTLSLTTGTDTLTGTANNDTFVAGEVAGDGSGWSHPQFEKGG", "READOUT_KIND": "glycan array binding signal (z-score)", "TEST_RESULT": -0.725}
{"BINDER": "ABA (Agaricus bisporus), Q00022 (protein) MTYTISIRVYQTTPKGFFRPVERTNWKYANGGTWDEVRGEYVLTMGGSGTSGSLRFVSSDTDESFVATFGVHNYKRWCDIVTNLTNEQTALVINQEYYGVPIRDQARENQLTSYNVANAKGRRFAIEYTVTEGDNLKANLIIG", "READOUT_KIND": "glycan array binding signal (z-score)", "TEST_RESULT": 2.8}
{"BINDER": "CrataBL (Crataeva tapia), C0HJA4 (protein) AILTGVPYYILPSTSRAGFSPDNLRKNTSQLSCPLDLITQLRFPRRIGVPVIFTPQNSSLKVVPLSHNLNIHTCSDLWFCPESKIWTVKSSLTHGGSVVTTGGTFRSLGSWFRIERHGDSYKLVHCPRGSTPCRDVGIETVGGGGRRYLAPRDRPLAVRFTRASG", "READOUT_KIND": "glycan array binding signal (z-score)", "TEST_RESULT": 2.17}
